Reference source: ChEMBL document CHEMBL1151685

Give measured MBC for each item. Keep answers brief.
System: Pseudomonas aeruginosa
experimentalProtocol: Antibacterial activity against Pseudomonas aeruginosa ATCC 27853 after 24 hrs by microdilution broth method
Assay type: functional
statedConditions: ATCC 27853, 24 h

Solved entries (count: 5):
CC1(C)C=Cc2cc(C(=O)/C=C/c3ccccc3)c(O)cc2O1: > 2000 µg/mL
COc1ccc(/C=C/C(=O)c2cc(OC)c(OC)cc2O)cc1: > 2000 µg/mL
COc1ccccc1/C=C/C(=O)c1cc(OC)c(OC)cc1OC: 2000 µg/mL
CC1(C)C=Cc2c(ccc(C(=O)/C=C/c3ccccc3)c2O)O1: 2000 µg/mL
CC1(C)C=Cc2cc(C(=O)/C=C/c3ccc(O)cc3)c(O)cc2O1 [4-HYDROXYISOLONCHOCARPIN]: > 2000 µg/mL

Count: 4. Required value per item: MBC.
1. COc1cc(C(=O)CCc2ccccc2)c(OC)c(CC=C(C)C)c1OC
2. COc1ccc(C(=O)/C=C/c2ccccc2O)cc1OC
3. COc1ccc(/C=C/C(=O)c2ccc(OC)cc2)cc1
4. O=C(CCc1ccc(O)cc1)c1c(O)cc(O)cc1O

Solution:
["2000 µg/mL", "> 2000 µg/mL", "2000 µg/mL", "2000 µg/mL"]

====

Test system: Escherichia coli
experimentalProtocol: Antibacterial activity against Escherichia coli ATCC 25922 after 24 hrs by microdilution broth method
Type: functional
statedConditions: ATCC 25922, 24 h
endpointLabel: MBC (µg/mL)
One number for each entry, in µg/mL.

COc1ccc(C(=O)/C=C/c2ccc(O)cc2)cc1: 2000

Below are some compounds; for each one, tell me its MBC.
1. COc1cc(OC)c(C(=O)CCc2ccc3c(c2)OCO3)cc1OC
2. CC(C)=CCc1c(O)ccc(C(=O)/C=C/c2ccc(O)cc2)c1O [ISOBAVACHALCONE]

Solution:
2000
1000

====

Tested on: Escherichia coli
experimentalProtocol: Antibacterial activity against Escherichia coli ATCC 25922 after 24 hrs by microdilution broth method
Format: functional
statedConditions: ATCC 25922, 24 h
endpointLabel: MBC (µg/mL)
One number for each entry, in µg/mL.

COc1ccc(C(=O)/C=C/c2ccccc2O)c(O)c1CC=C(C)C: 2000

Then there is this compound:
Problem: Determine its reported MBC: COc1ccc(C(=O)/C=C/c2ccc(O)cc2)c(O)c1CC=C(C)C
Solution: 2000

====

Can you tell me MBC for the items I'm about to list?
System: Bacillus cereus
experimentalProtocol: Antibacterial activity against Bacillus cereus ATCC 11778 after 24 hrs by microdilution broth method
Assay type: functional
statedConditions: ATCC 11778, 24 h

COc1cc(OC)c(OC)cc1/C=C/C(=O)c1cc(OC)c(OC)cc1OC: > 2000 µg/mL

State the recorded MBC for every item in the following list.
1. COc1ccc(C(=O)/C=C/c2ccc(O)cc2)c(O)c1CC=C(C)C
2. COc1ccc(C(=O)/C=C/c2ccccc2)c(O)c1CC=C(C)C [DERRICIN]

Solution:
["3.9 µg/mL", "2000 µg/mL"]

====

Test system: Bacillus cereus
experimentalProtocol: Antibacterial activity against Bacillus cereus ATCC 11778 after 24 hrs by microdilution broth method
Assay type: functional
statedConditions: ATCC 11778, 24 h
Could you please report measured MBC for the items listed next?
Give bare numbers, in µg/mL.

O=C(/C=C/c1ccc(O)cc1)c1ccc(O)cc1O: 62.5

// each compound listed below needs its MBC
1. CC(C)=CCOc1ccc(C(=O)/C=C/c2ccccc2)c(O)c1
2. COc1ccc(/C=C/C(=O)c2ccc(OC)c(CC=C(C)C)c2O)cc1
3. COc1ccc(C(=O)/C=C/c2c(OC)cc(OC)c(OC)c2OC)cc1OC

Solution:
1: 2000; 2: 2000; 3: 2000

Items follow; give MBC for each.
1. O=C(CCc1ccccc1O)c1ccccc1
2. COc1cc(OC)c(C(=O)CCc2ccc3c(c2)OCO3)cc1OC

Solution:
1. 500
2. 2000

====

System: Bacillus cereus
experimentalProtocol: Antibacterial activity against Bacillus cereus ATCC 11778 after 24 hrs by microdilution broth method
Type: functional
statedConditions: ATCC 11778, 24 h
endpointLabel: log10 MBC (log10 of the value in µg/mL)
For clarity, the numbers are log10 values of MBC expressed in µg/mL.

CC(C)=CCC/C(C)=C\Cc1c(O)ccc(C(=O)/C=C/c2ccc(O)cc2)c1O: 1.19

Please state log10 MBC for every compound in the list that follows.
1. CC(C)=CCc1c(O)ccc(C(=O)/C=C/c2ccc(O)cc2)c1O
2. CC(C)=CCc1c(O)ccc(C(=O)/C=C/c2ccccc2)c1O
3. CC(C)=CCOc1ccc(C(=O)/C=C/c2ccc(O)cc2)c(O)c1
4. CC1(C)C=Cc2c(ccc(C(=O)/C=C/c3ccccc3)c2O)O1
5. COc1ccc(C(=O)/C=C/c2cccc(O)c2)c(O)c1CC=C(C)C

Solution:
1. 1.49
2. 3.30
3. 3.00
4. 3.30
5. 3.00

Could I get log10 MBC for every one of these entries?
1. COc1ccc(C(=O)/C=C/c2ccccc2)cc1OC
2. COc1ccc(C(=O)/C=C/c2ccccc2O)c(O)c1CC=C(C)C
3. O=C(CCc1ccc(O)cc1)c1c(O)cc(O)cc1O
4. CC(C)=CCC/C(C)=C\Cc1c(O)ccc(C(=O)/C=C/c2ccc(O)c(CC=C(C)C)c2)c1O
5. COc1ccc(C(=O)/C=C/c2ccc(O)cc2)cc1
6. COc1cc(C(=O)CCc2ccccc2)c(OC)c(CC=C(C)C)c1OC
7. COc1ccccc1/C=C/C(=O)c1cc(OC)c(OC)cc1OC
8. COc1ccc(C(=O)/C=C/c2ccccc2O)cc1OC

Solution:
[3.00, 3.30, 2.40, 1.19, 3.30, 3.30, 2.40, 3.00]

====

Tested on: Staphylococcus aureus
experimentalProtocol: Antibacterial activity against Staphylococcus aureus ATCC 25923 after 24 hrs by microdilution broth method
Type: functional
statedConditions: ATCC 25923, 24 h
endpointLabel: MIC (µg/mL)
Give bare numbers, in µg/mL.

Solved entries (count: 6):
COc1ccc(/C=C/C(=O)c2cc(OC)c(OC)cc2O)cc1: 2000
CC(C)=CCOc1ccc(C(=O)/C=C/c2ccc(O)cc2)c(O)c1: 2000
CC1(C)C=Cc2c(ccc(C(=O)/C=C/c3ccccc3)c2O)O1: 2000
COc1cc(OC)c(C(=O)CCc2ccc3c(c2)OCO3)cc1OC: 2000
COc1ccc(C(=O)/C=C/c2cccc(O)c2)c(O)c1CC=C(C)C: 2000
CC(C)=CCC/C(C)=C\Cc1c(O)ccc(C(=O)/C=C/c2ccc(O)cc2)c1O: 31.2

Below is a list of compounds. For each, state its recorded MIC.
1. COc1cc(C(=O)CCc2ccccc2)c(OC)c(CC=C(C)C)c1OC
2. CC1(C)C=Cc2cc(C(=O)/C=C/c3ccc(O)cc3)c(O)cc2O1 [4-HYDROXYISOLONCHOCARPIN]
3. O=C(CCc1ccc(O)cc1)c1c(O)cc(O)cc1O
4. CC(C)=CCOc1ccc(C(=O)/C=C/c2ccccc2)c(O)c1
5. COc1ccc(C(=O)/C=C/c2ccc(O)cc2)c(O)c1CC=C(C)C
6. COc1ccc(C(=O)/C=C/c2c(OC)cc(OC)c(OC)c2OC)cc1OC

Solution:
2000
1000
250
2000
7.8
2000

Items follow; give MIC for each.
1. COc1ccc(C(=O)/C=C/c2ccc(O)cc2)cc1
2. COc1ccc(C(=O)/C=C/c2ccccc2O)c(O)c1CC=C(C)C
3. CC(C)=CCc1c(O)ccc(C(=O)/C=C/c2ccccc2)c1O
4. CN(C)[C@@H]1C(O)=C(C(N)=O)C(=O)[C@@]2(O)C(O)=C3C(=O)c4c(O)cccc4[C@@](C)(O)[C@H]3C[C@@H]12
5. COc1ccc(C(=O)/C=C/c2ccccc2)c(O)c1CC=C(C)C
6. CC(C)=CCc1c(O)ccc(C(=O)/C=C/c2ccc(O)cc2)c1O

Solution:
1. 2000
2. 2000
3. 2000
4. 1
5. 2000
6. 31.2

Problem: Entry COc1ccc(/C=C/C(=O)c2ccc(OC)c(CC=C(C)C)c2O)cc1 needs its MIC filled in; supply it.
Solution: 2000

====

Please provide measured MIC for the entries that follow.
Test system: Staphylococcus aureus
experimentalProtocol: Antibacterial activity against Staphylococcus aureus ATCC 25923 after 24 hrs by microdilution broth method
Format: functional
statedConditions: ATCC 25923, 24 h

Use these answered entries as a reference point.
COc1ccc(/C=C/C(=O)c2ccc(OC)cc2)cc1 [4,4'-DIMETHOXYCHALCONE]: > 2000 µg/mL
COc1cc(OC)c(OC)cc1/C=C/C(=O)c1cc(OC)c(OC)cc1OC: > 2000 µg/mL

Problem: Identify MIC associated with the compound COc1cc(OC)c(C(=O)/C=C/c2ccc3c(c2)OCO3)c(OC)c1OC
Solution: > 2000 µg/mL
